biological target: sites associated to calcium channels labeled by ^3H-Diltiazem; experiment: Binding to Ca++ channel sites labelled by 3H-Diltiazem in rat brain; settings: rat brain cortex membranes; ^3H-d-cis Diltiazem 4 nM, 60' at 30°C; read-out: IC50 Uptake sites of Ca^++ channels labelled with ^3H-Diltiazem
Attribute: IC50
measure: IC50 (µM)

1) CCCCCCCOC(=O)C[C@H](C[N+](C)(C)C)OC(=O)C(C)C
1.3
2) CCCCCCCCCCCOC(=O)C[C@H](C[N+](C)(C)C)OC(=O)CC(C)C
1.4
3) CCCCOC(=O)C[C@H](C[N+](C)(C)C)OC(=O)CC(C)C
15
